Provide the recorded solubility for the entries that follow.
TEST_DESCRIPTION: Solubility in phosphate buffer at 10 mM at pH 6.8 by HPLC analysis
Format: physicochemical
Enter your answer as a number in µg/mL; do not include the unit.

query: Reported solubility, compound CC(C)C1=C(C(=O)N2[C@H](C)CC[C@H]2C(=O)N2CCN(C)C3(CC3)C2)SC2=N[C@@](C)(c3ccc(Cl)cc3)[C@@H](c3ccc(Cl)cc3)N21 : ____
result: 38

query: // same read-out, input: CC[C@@H]1CNC2(CC2)CN1C(=O)[C@@H]1C[C@@H](F)CN1C(=O)C1=C(C(C)C)N2C(=N[C@@](C)(c3ccc(Cl)nc3)[C@H]2c2ccc(Cl)c(F)c2)S1
result: 420

query: // same read-out, input: CC(C)C1=C(C(=O)N2[C@H](C)CC[C@H]2C(=O)N2CCNC3(CC3)C2)SC2=N[C@@](C)(c3ccc(Cl)nc3)[C@@H](c3ccc(Cl)c(F)c3)N21
result: 330

====

TEST_DESCRIPTION: Plasma concentration in mouse at 50 mg/kg, po after 3 hrs
Format: ADME, organism-based
Set-up: dose 50 mg/kg, route oral
PROPERTY_MEASURED: concentration at 3 h (ng/mL)
Enter your answer as a number in ng/mL; do not include the unit.

query: Reported concentration at 3 h, molecule CC[C@@H]1CNC2(CC2)CN1C(=O)[C@@H]1C[C@@H](F)CN1C(=O)C1=C(C(C)C)N2C(=N[C@@](C)(c3ccc(Cl)nc3)[C@H]2c2ccc(Cl)c(F)c2)S1 : ____
result: 15900

====

TEST_DESCRIPTION: Cmax in mouse at 50 mg/kg, po
Format: ADME, organism-based
Parameters: dose 50 mg/kg, route oral
EXPERIMENTAL_PARAMETERS: in vivo
PROPERTY_MEASURED: Cmax (ng/mL)
Enter your answer as a number in ng/mL; do not include the unit.

query: Reported Cmax, compound CC[C@@H]1CNC2(CC2)CN1C(=O)[C@@H]1C[C@@H](F)CN1C(=O)C1=C(C(C)C)N2C(=N[C@@](C)(c3ccc(Cl)nc3)[C@H]2c2ccc(Cl)c(F)c2)S1 : ____
result: 15900

====

TEST_DESCRIPTION: Plasma concentration in mouse at 100 mg/kg, po after 24 hrs
Type: ADME, organism-based
Set-up: dose 100 mg/kg, route oral
PROPERTY_MEASURED: concentration at 24 h (ng/mL)
Enter your answer as a number in ng/mL; do not include the unit.

query: Reported concentration at 24 h, compound CC[C@@H]1CNC2(CC2)CN1C(=O)[C@@H]1C[C@@H](F)CN1C(=O)C1=C(C(C)C)N2C(=N[C@@](C)(c3ccc(Cl)nc3)[C@H]2c2ccc(Cl)c(F)c2)S1 : ____
result: 10

====

TEST_DESCRIPTION: Metabolic stability in mouse hepatic microsome assessed as compound remaining measured at 1 uM after 30 mins by LC-MS/MS analysis
Format: ADME
EXPERIMENTAL_PARAMETERS: liver microsomes, read-out: Stability
PROPERTY_MEASURED: remaining at 0.5 h, 1 µM (%)
Enter your answer as a number in %; do not include the unit.

query: Reported remaining at 0.5 h, 1 µM, compound CC(C)C1=C(C(=O)N2[C@H](C)CC[C@H]2C(=O)N2CCN(C)C3(CC3)C2)SC2=N[C@@](C)(c3ccc(Cl)cc3)[C@@H](c3ccc(Cl)cc3)N21 : ____
result: 41

query: // same read-out, input: CC(C)C1=C(C(=O)N2[C@H](C)CC[C@H]2C(=O)N2CCNC3(CC3)C2)SC2=N[C@@](C)(c3ccc(Cl)cc3)[C@@H](c3ccc(Cl)cc3)N21
result: 87

query: // same read-out, input: CC(C)C1=C(C(=O)N2[C@H](C)CC[C@H]2C(=O)N2CCN(C)[C@H](C)C2)SC2=N[C@@](C)(c3ccc(Cl)cc3)[C@@H](c3ccc(Cl)cc3)N21
result: 74

query: // same read-out, input: CC(C)C1=C(C(=O)N2[C@H](C)CC[C@H]2C(=O)N2CCNC3(CC3)C2)SC2=N[C@@](C)(c3ccc(Cl)cc3)[C@@H](c3ccc(Cl)c(F)c3)N21
result: 85

query: // same read-out, input: CC[C@@H]1CNC2(CC2)CN1C(=O)[C@@H]1C[C@@H](F)CN1C(=O)C1=C(C(C)C)N2C(=N[C@@](C)(c3ccc(Cl)nc3)[C@H]2c2ccc(Cl)c(F)c2)S1
result: 84

query: // same read-out, input: CC(C)C1=C(C(=O)N2[C@H](C)CC[C@H]2C(=O)N2CC3(CC3)NC[C@@H]2C)SC2=N[C@@](C)(c3ccc(Cl)nc3)[C@@H](c3ccc(Cl)c(F)c3)N21
result: 100

query: // same read-out, input: CC(C)C1=C(C(=O)N2[C@H](C)CC[C@H]2C(=O)N2CCNC3(CC3)C2)SC2=N[C@@](C)(c3ccc(Cl)nc3)[C@@H](c3ccc(Cl)c(F)c3)N21
result: 80

query: // same read-out, input: CC(C)C1=C(C(=O)N2C[C@H](F)C[C@H]2C(=O)N2CC3(CC3)NC[C@@H]2C)SC2=N[C@@](C)(c3ccc(Cl)nc3)[C@@H](c3ccc(Cl)c(F)c3)N21
result: 79

====

TEST_DESCRIPTION: AUC in mouse plasma at 50 mg/kg, po
Assay type: ADME, organism-based
Design: dose 50 mg/kg, route oral
PROPERTY_MEASURED: AUC (µg·h/mL)
Enter your answer as a number in µg·h/mL; do not include the unit.

query: Reported AUC, molecule CC[C@@H]1CNC2(CC2)CN1C(=O)[C@@H]1C[C@@H](F)CN1C(=O)C1=C(C(C)C)N2C(=N[C@@](C)(c3ccc(Cl)nc3)[C@H]2c2ccc(Cl)c(F)c2)S1 : ____
result: 147

====

TEST_DESCRIPTION: AUC in mouse plasma at 25 mg/kg, po
Assay type: ADME, organism-based
Design: dose 25 mg/kg, route oral
PROPERTY_MEASURED: AUC (ng·h/mL)
Enter your answer as a number in ng·h/mL; do not include the unit.

query: Reported AUC, molecule CC[C@@H]1CNC2(CC2)CN1C(=O)[C@@H]1C[C@@H](F)CN1C(=O)C1=C(C(C)C)N2C(=N[C@@](C)(c3ccc(Cl)nc3)[C@H]2c2ccc(Cl)c(F)c2)S1 : ____
result: 47100

====

TEST_DESCRIPTION: Plasma concentration in mouse at 25 mg/kg, po after 3 hrs
Format: ADME, organism-based
Parameters: dose 25 mg/kg, route oral
PROPERTY_MEASURED: concentration at 3 h (ng/mL)
Enter your answer as a number in ng/mL; do not include the unit.

query: Reported concentration at 3 h, molecule CC[C@@H]1CNC2(CC2)CN1C(=O)[C@@H]1C[C@@H](F)CN1C(=O)C1=C(C(C)C)N2C(=N[C@@](C)(c3ccc(Cl)nc3)[C@H]2c2ccc(Cl)c(F)c2)S1 : ____
result: 6000

====

TEST_DESCRIPTION: Plasma concentration in mouse at 25 mg/kg, po after 6 hrs
Format: ADME, organism-based
Set-up: dose 25 mg/kg, route oral
PROPERTY_MEASURED: concentration at 6 h
// unit must come after the numeric part

query: Reported concentration at 6 h, compound CC[C@@H]1CNC2(CC2)CN1C(=O)[C@@H]1C[C@@H](F)CN1C(=O)C1=C(C(C)C)N2C(=N[C@@](C)(c3ccc(Cl)nc3)[C@H]2c2ccc(Cl)c(F)c2)S1 : ____
result: 3600 ng/mL

====

TEST_DESCRIPTION: Solubility in phosphate buffer at 10 mM at pH 6.8 by HPLC analysis
Format: physicochemical
Provide the recorded solubility for the entries that follow.
Enter your answer as a number in µg/mL; do not include the unit.

query: Reported solubility, compound CC(C)C1=C(C(=O)N2[C@H](C)CC[C@H]2C(=O)N2CCNC3(CC3)C2)SC2=N[C@@](C)(c3ccc(Cl)cc3)[C@@H](c3ccc(Cl)c(F)c3)N21 : ____
result: 51

query: // same read-out, input: CC(C)C1=C(C(=O)N2[C@H](C)CC[C@H]2C(=O)N2CC3(CC3)NC[C@@H]2C)SC2=N[C@@](C)(c3ccc(Cl)nc3)[C@@H](c3ccc(Cl)c(F)c3)N21
result: 720

query: // same read-out, input: CC(C)C1=C(C(=O)N2[C@H](C)CC[C@H]2C(=O)N2CCNC3(CC3)C2)SC2=N[C@@](C)(c3ccc(Cl)cc3)[C@@H](c3ccc(Cl)cc3)N21
result: 56

query: // same read-out, input: CC(C)C1=C(C(=O)N2C[C@H](F)C[C@H]2C(=O)N2CC3(CC3)NC[C@@H]2C)SC2=N[C@@](C)(c3ccc(Cl)nc3)[C@@H](c3ccc(Cl)c(F)c3)N21
result: 640
